Sourced from the supplement of paper PMC10307832

System: EPLC-272H
assay-summary: relative viability (nuclei count vs DMSO), 5 days (fraction); higher = more cells survive
condition-info: first compound 0.3162 µM
Recorded relative viability, one value per entry.

{"columns": ["compound", "relative viability"],
 "data": [
  ["NC(=O)Nc1cc(-c2cccc(F)c2)sc1C(=O)N[C@H]1CCCNC1 [AZD7762] + CC(=O)Nc1cccc(-n2c(=O)n(C3CC3)c(=O)c3c(Nc4ccc(I)cc4F)n(C)c(=O)c(C)c32)c1 [Trametinib] (partner 0.02 µM)", 0.293],
  ["NC(=O)Nc1cc(-c2cccc(F)c2)sc1C(=O)N[C@H]1CCCNC1 [AZD7762] + CC1(C)CCC(c2ccc(Cl)cc2)=C(CN2CCN(c3ccc(C(=O)NS(=O)(=O)c4ccc(N[C@H](CCN5CCOCC5)CSc5ccccc5)c(S(=O)(=O)C(F)(F)F)c4)cc3)CC2)C1 [Navitoclax] (partner 0.5 µM)", 1.37],
  ["NC(=O)Nc1cc(-c2cccc(F)c2)sc1C(=O)N[C@H]1CCCNC1 [AZD7762] + COc1cccc2cc(-c3nc([C@H]4CC[C@H](C(=O)O)CC4)n4ncnc(N)c34)[nH]c12 [OSI-027] (partner 0.5 µM)", 0.27],
  ["NC(=O)Nc1cc(-c2cccc(F)c2)sc1C(=O)N[C@H]1CCCNC1 [AZD7762] + CC(=O)c1c(C)c2cnc(Nc3ccc(N4CCNCC4)cn3)nc2n(C2CCCC2)c1=O [Palbociclib] (partner 0.5 µM)", 0.307]
]}

====

Test system: SK-MES-1
assay-summary: relative viability (nuclei count vs DMSO), 5 days (fraction); higher = more cells survive
condition-info: first compound 0.253 µM
List of relative viability values.
readout-type: relative viability

{"columns": ["compound", "readout-type", "assay-result"],
 "data": [
  ["Oc1nc(-c2ccc(C(F)(F)F)cc2)nc2c1CSCC2 [XAV939] + CC1(C)CCC(c2ccc(Cl)cc2)=C(CN2CCN(c3ccc(C(=O)NS(=O)(=O)c4ccc(N[C@H](CCN5CCOCC5)CSc5ccccc5)c(S(=O)(=O)C(F)(F)F)c4)cc3)CC2)C1 [Navitoclax] (partner 0.5 µM)", "relative viability", 1.12],
  ["C=C1C(=O)O[C@@H](CCCCCCCC)[C@@H]1C(=O)O [C-75] + C[C@@H](Oc1cc(-c2cnn(C3CCNCC3)c2)cnc1N)c1c(Cl)ccc(F)c1Cl [Crizotinib] (partner 1 µM)", "relative viability", 0.997],
  ["C=C1C(=O)O[C@@H](CCCCCCCC)[C@@H]1C(=O)O [C-75] + Cc1cc(Nc2cc(N3CCN(C)CC3)nc(Sc3ccc(NC(=O)C4CC4)cc3)n2)n[nH]1 [Tozasertib] (partner 0.1 µM)", "relative viability", 0.989],
  ["Oc1nc(-c2ccc(C(F)(F)F)cc2)nc2c1CSCC2 [XAV939] + N=C(N)NC(=N)NCCc1ccccc1 [Phenformin] (partner 250 µM)", "relative viability", 0.643],
  ["Oc1nc(-c2ccc(C(F)(F)F)cc2)nc2c1CSCC2 [XAV939] + CS(=O)(=O)N1CCN(Cc2cc3nc(-c4cccc5[nH]ncc45)nc(N4CCOCC4)c3s2)CC1 [Pictilisib] (partner 1 µM)", "relative viability", 0.327],
  ["C=C1C(=O)O[C@@H](CCCCCCCC)[C@@H]1C(=O)O [C-75] + O=C(c1cc(Cc2n[nH]c(=O)c3ccccc23)ccc1F)N1CCN(C(=O)C2CC2)CC1 [Olaparib] (partner 8 µM)", "relative viability", 0.772],
  ["Oc1nc(-c2ccc(C(F)(F)F)cc2)nc2c1CSCC2 [XAV939] + CC(=O)Nc1cccc(-n2c(=O)n(C3CC3)c(=O)c3c(Nc4ccc(I)cc4F)n(C)c(=O)c(C)c32)c1 [Trametinib] (partner 0.02 µM)", "relative viability", 0.5],
  ["Oc1nc(-c2ccc(C(F)(F)F)cc2)nc2c1CSCC2 [XAV939] + Cc1nc(NC(=O)N2CCC[C@H]2C(N)=O)sc1-c1ccnc(C(C)(C)C(F)(F)F)c1 [Alpelisib] (partner 2 µM)", "relative viability", 0.912],
  ["Oc1nc(-c2ccc(C(F)(F)F)cc2)nc2c1CSCC2 [XAV939] + CCNC(=O)c1noc(-c2cc(C(C)C)c(O)cc2O)c1-c1ccc(CN2CCOCC2)cc1 [Luminespib] (partner 0.01 µM)", "relative viability", 0.726]
]}

====

Tested on: NCI-H2085
assay-summary: relative viability (nuclei count vs DMSO), 5 days (fraction); higher = more cells survive
condition-info: first compound 0.8 µM
# note: boundary value 0.9 maps to 0.0; relative viability below it maps to 1.0

{"columns": ["compound", "class-assignment"],
 "data": [
  ["C=C1C(=O)O[C@@H](CCCCCCCC)[C@@H]1C(=O)O [C-75] + O=C(CCCCCCC(=O)Nc1ccccc1)NO [Vorinostat] (partner 1 µM)", 1.0],
  ["Oc1nc(-c2ccc(C(F)(F)F)cc2)nc2c1CSCC2 [XAV939] + CS(=O)(=O)N1CCN(Cc2cc3nc(-c4cccc5[nH]ncc45)nc(N4CCOCC4)c3s2)CC1 [Pictilisib] (partner 1 µM)", 1.0],
  ["Oc1nc(-c2ccc(C(F)(F)F)cc2)nc2c1CSCC2 [XAV939] + CS(=O)(=O)CCNCc1ccc(-c2ccc3ncnc(Nc4ccc(OCc5cccc(F)c5)c(Cl)c4)c3c2)o1 [Lapatinib] (partner 2 µM)", 1.0],
  ["C=C1C(=O)O[C@@H](CCCCCCCC)[C@@H]1C(=O)O [C-75] + Cc1cc(Nc2cc(N3CCN(C)CC3)nc(Sc3ccc(NC(=O)C4CC4)cc3)n2)n[nH]1 [Tozasertib] (partner 0.1 µM)", 1.0],
  ["Oc1nc(-c2ccc(C(F)(F)F)cc2)nc2c1CSCC2 [XAV939] + COc1cccc2cc(-c3nc([C@H]4CC[C@H](C(=O)O)CC4)n4ncnc(N)c34)[nH]c12 [OSI-027] (partner 0.5 µM)", 0.0],
  ["C=C1C(=O)O[C@@H](CCCCCCCC)[C@@H]1C(=O)O [C-75] + Cc1nc(NC(=O)N2CCC[C@H]2C(N)=O)sc1-c1ccnc(C(C)(C)C(F)(F)F)c1 [Alpelisib] (partner 2 µM)", 0.0]
]}

====

Test system: NCI-H727
assay-summary: relative viability (nuclei count vs DMSO), 5 days (fraction); higher = more cells survive
condition-info: first compound 0.8 µM

{"columns": ["compound", "relative viability"],
 "data": [
  ["C=C1C(=O)O[C@@H](CCCCCCCC)[C@@H]1C(=O)O [C-75] + CC(C)C[C@H](NC(=O)[C@H](Cc1ccccc1)NC(=O)c1cnccn1)B(O)O [Bortezomib] (partner 0.002 µM)", 0.614],
  ["Oc1nc(-c2ccc(C(F)(F)F)cc2)nc2c1CSCC2 [XAV939] + C[C@]1(O)C[C@@H](c2nc(-c3ccc4ccc(-c5ccccc5)nc4c3)c3c(N)nccn32)C1 [Linsitinib] (partner 1 µM)", 0.233],
  ["C=C1C(=O)O[C@@H](CCCCCCCC)[C@@H]1C(=O)O [C-75] + CC(=O)c1c(C)c2cnc(Nc3ccc(N4CCNCC4)cn3)nc2n(C2CCCC2)c1=O [Palbociclib] (partner 0.5 µM)", 0.544],
  ["Oc1nc(-c2ccc(C(F)(F)F)cc2)nc2c1CSCC2 [XAV939] + CCNC(=O)c1noc(-c2cc(C(C)C)c(O)cc2O)c1-c1ccc(CN2CCOCC2)cc1 [Luminespib] (partner 0.01 µM)", 0.472],
  ["Oc1nc(-c2ccc(C(F)(F)F)cc2)nc2c1CSCC2 [XAV939] + CS(=O)(=O)CCNCc1ccc(-c2ccc3ncnc(Nc4ccc(OCc5cccc(F)c5)c(Cl)c4)c3c2)o1 [Lapatinib] (partner 2 µM)", 0.759]
]}

====

System: NCI-H1975
assay-summary: relative viability (nuclei count vs DMSO), 5 days (fraction); higher = more cells survive
condition-info: first compound 0.8 µM
Decision: relative viability beneath 0.5 gives true (1); relative viability meeting or exceeding 0.5 gives false (0).

{"columns": ["compound", "measured-target", "class-assignment"],
 "data": [
  ["C=C1C(=O)O[C@@H](CCCCCCCC)[C@@H]1C(=O)O [C-75] + CC(=O)c1c(C)c2cnc(Nc3ccc(N4CCNCC4)cn3)nc2n(C2CCCC2)c1=O [Palbociclib] (partner 0.5 µM)", "NCI-H1975", "false (0)"],
  ["Oc1nc(-c2ccc(C(F)(F)F)cc2)nc2c1CSCC2 [XAV939] + CC(=O)Nc1cccc(-n2c(=O)n(C3CC3)c(=O)c3c(Nc4ccc(I)cc4F)n(C)c(=O)c(C)c32)c1 [Trametinib] (partner 0.02 µM)", "NCI-H1975", "true (1)"],
  ["C=C1C(=O)O[C@@H](CCCCCCCC)[C@@H]1C(=O)O [C-75] + C[C@]1(O)C[C@@H](c2nc(-c3ccc4ccc(-c5ccccc5)nc4c3)c3c(N)nccn32)C1 [Linsitinib] (partner 1 µM)", "NCI-H1975", "false (0)"],
  ["Oc1nc(-c2ccc(C(F)(F)F)cc2)nc2c1CSCC2 [XAV939] + N=C(N)NC(=N)NCCc1ccccc1 [Phenformin] (partner 250 µM)", "NCI-H1975", "true (1)"],
  ["Oc1nc(-c2ccc(C(F)(F)F)cc2)nc2c1CSCC2 [XAV939] + CCNC(=O)c1noc(-c2cc(C(C)C)c(O)cc2O)c1-c1ccc(CN2CCOCC2)cc1 [Luminespib] (partner 0.01 µM)", "NCI-H1975", "true (1)"]
]}
